Test: Compound 1 pH-solubility at 22° C.
Format: physicochemical
Conditions: citrate buffer, aqueous buffer, thermodynamic from solid; pH 5 (Citrate 25 mM, l = 0.1), pH 5.0, 22° C.
Source text: The solubility of Compound 1 at various pH's was investigated.
measuredMetric: solubility (µg/mL)
API: value field is a number in µg/mL; no unit string.

IN: For the compound CC(C)(C)OC(=O)N1CCN(Cc2ccn(Cc3ccc(Cl)cc3)c(=O)c2O)CC1 , give its measured solubility value.
OUT: 9.8

* * *

Assay: Phase 1a multiple ascending dose study (oral solution): plasma pharmacokinetics
Type: in vivo, human
Settings: human, plasma, oral, 60 mg, Cohort 5, 60 mg once daily; Day 7; read-out: AUC(0-t), mean
measuredMetric: AUC(0-t)

IN: For the molecule CC(C)(C)OC(=O)N1CCN(Cc2ccn(Cc3ccc(Cl)cc3)c(=O)c2O)CC1 , give its measured AUC(0-t) value.
OUT: 53.2 ng·h/mL
